- SYSTEM_UNDER_TEST: WDR5 protein (Homo sapiens (Human), UniProt P61964)
- TEST_METHOD_NOTES: Surface Plasmon Resonance (SPR) assay
- Assay type: binding
- RUN_PARAMETERS: SPR, Table 2; read-out: WDR5 binding affinity SPR (KD)
Mark each entry rule met if its Kd sits below 7 nM, and rule not met for all others.

Previously resolved entries follow.
C[C@@H]1CN(c2ccc(-c3c(F)ccc(CNC4CCCCC4)c3F)cc2NC(=O)c2c[nH]c(=O)cc2C(F)(F)F)C[C@H](C)N1C; rule not met
COc1cc(C(F)(F)F)c(C(=O)Nc2cc(-c3cc(CN(C)[C@H]4CCOC4)ccc3F)ccc2N2CCN(C)CC2)cn1; rule not met
C[C@@H]1CN(c2ccc(-c3cc(CNC4CCCCC4)c(F)cc3F)cc2NC(=O)c2c[nH]c(=O)cc2C(F)(F)F)C[C@H](C)N1C; rule met
Cc1c(F)ccc(C(=O)Nc2cc(-c3cc(CN4CCOCC4)ccc3F)ccc2N2CCN(C)CC2)c1Cl; rule not met
C[C@@H]1CN(c2ccc(-c3ccc(N4CCOCC4)cc3F)cc2NC(=O)c2c[nH]c(=O)cc2C(F)(F)F)C[C@H](C)N1C; rule met
CN1CCN(c2ccc(-c3cc(CN4CCNCC4)ccc3F)cc2NC(=O)c2c[nH]c(=O)cc2C(F)(F)F)CC1; rule met
CN1CCN(c2ccc(-c3cc(CN4CCOCC4)ccc3F)cc2NC(=O)c2cc(F)cc3[nH]cnc23)CC1; rule not met
CN1CCN(c2ccc(-c3cc(CNC4CCC(F)(F)CC4)ccc3F)cc2NC(=O)c2c[nH]c(=O)cc2C(F)(F)F)CC1; rule met

Does the reported Kd of CN1CCN(c2ccc(-c3ccc(OC4CCOCC4)nc3F)cc2NC(=O)c2c[nH]c(=O)cc2C(F)(F)F)CC1 stay below 7 nM?
rule met

# check: Kd < 7 nM for O=C(Nc1cc(-c2cc(CN3CCOCC3)ccc2F)ccc1N1CCN(CC(F)(F)F)CC1)c1c[nH]c(=O)cc1C(F)(F)F
rule not met

Item C[C@@H]1CN(c2ccc(-c3cc(CN4CCOCC4)ccc3F)cc2NC(=O)c2c[nH]c(=O)cc2C(F)(F)F)C[C@H](C)N1C : Kd beneath 7 nM, strictly?
rule not met

For this molecule, is Kd lower than 7 nM? COCOc1cc(F)c(-c2ccc(N3CCN(C)CC3)c(NC(=O)c3c[nH]c(=O)cc3C(F)(F)F)c2)cc1C(=O)NC(C)(C)CC(C)(C)C
rule not met

Consider CN1CCN(c2ccc(-c3cc(CN4CCC(N5CCOCC5)CC4)ccc3F)cc2NC(=O)c2c[nH]c(=O)cc2C(F)(F)F)CC1 . Does its Kd lie strictly below 7 nM?
rule met
